Overview of reported solubility kinetic across a group of compounds:
- MEASUREMENT_PARAMETERS: buffer; pH 7.4; 200.0 µM
Field format: number, assumed µg/mL, no unit text.

COc1ccccc1-n1cc(-c2ccc(C)cc2)[nH]c1=S ... 1
c1csc(-c2cn3ccc4ccccc4c3n2)c1 ... 10.7

For the compound `Cc1cc(SCC(=O)c2ccccc2)nc(=O)[nH]1` , give its measured solubility kinetic value.
16.7

For the compound `O=C(O)c1ccccc1Nc1cc(Cl)c2nonc2c1[N+](=O)[O-]` , give its measured solubility kinetic value.
43.3

For the compound `O=C(OCC(=O)N1CCOCC1)c1ccc(O)cc1` , give its measured solubility kinetic value.
31

---

Overview of reported solubility kinetic across a group of compounds:
- MEASUREMENT_PARAMETERS: buffer; pH 7.4; 200.0 µM
Field format: number, assumed µg/mL, no unit text.

COc1ccc(NC(=O)Nc2cnccn2)cc1 ... 8.1

For the compound `Cc1ccccc1CC(=O)Nc1ccc2c(C)cc(=O)oc2c1` , give its measured solubility kinetic value.
2.1

For the compound `Nc1ccc(C2(c3ccc(N)cc3)CCCCC2)cc1` , give its measured solubility kinetic value.
36

For the compound `COc1ccc(S(=O)(=O)NCCc2c[nH]c3ccc(C)cc23)cc1` , give its measured solubility kinetic value.
17.3

For the compound Cc1ccc2nc(Br)c3c(c2c1)OC(CBr)C3 (centres undefined) , give its measured solubility kinetic value.
9.7

For the compound `O=C(c1cccs1)N1CCN(c2ccc([N+](=O)[O-])cc2F)CC1` , give its measured solubility kinetic value.
4.7

---

- MEASUREMENT_PARAMETERS: buffer; pH 7.4; 200.0 µM
The label depends only on solubility kinetic: Satisfied if it is at least 20 µg/mL, Not satisfied if it is smaller.

Worked cases, answers included:
COc1ccc(Cn2c(=O)cc(N)n(-c3ccccc3C)c2=O)cc1 ... Satisfied
Cc1ccccc1-c1nc(S(=O)(=O)c2ccccc2)c(N2CCCC2)o1 ... Not satisfied
CSCCC1COC(c2cccs2)=N1 (configuration not stated) ... Satisfied

Please indicate if the recorded solubility kinetic for `O=C(N/N=C/c1ccc([N+](=O)[O-])o1)C1CCCC1` meets or exceeds 20 µg/mL.
Satisfied

Please indicate if the recorded solubility kinetic for `Cc1cc(C)cc(NC(=S)NC(=O)C2CC2)c1` meets or exceeds 20 µg/mL.
Satisfied

Please indicate if the recorded solubility kinetic for `Cc1c(N)cc(N)cc1C(=O)O` meets or exceeds 20 µg/mL.
Satisfied

Please indicate if the recorded solubility kinetic for `COc1ccc(C(=O)NCCSCc2cccc(Cl)c2)cc1OC` meets or exceeds 20 µg/mL.
Not satisfied

Please indicate if the recorded solubility kinetic for `Cc1cccn2c(=O)c3cc(C(=O)N4COCC4(C)C)sc3nc12` meets or exceeds 20 µg/mL.
Not satisfied

Please indicate if the recorded solubility kinetic for `COC(=O)c1ccc(NC(=O)c2cccc(NC(=O)c3ccco3)c2)cc1` meets or exceeds 20 µg/mL.
Not satisfied

Please indicate if the recorded solubility kinetic for CSCCC(NC(=O)c1ccco1)C(=O)NCC1CCCCC1 (configuration not stated) meets or exceeds 20 µg/mL.
Satisfied

Please indicate if the recorded solubility kinetic for `Cn1cnnc1SCC(=O)Nc1ccc(N2CCOCC2)cc1` meets or exceeds 20 µg/mL.
Satisfied

Please indicate if the recorded solubility kinetic for CN1C(=S)SC(/[N+]([O-])=C/c2ccc(Cl)cc2)C1(C)C (configuration not stated) meets or exceeds 20 µg/mL.
Not satisfied

Source listed as PubChem BioAssay AID1996.
